Overview of recorded TGI for various compounds
Test system: HCT-116 colon
TEST_PROTOCOL: NCI tumour cell line growth inhibition, 48 h

{"COMPOUND": "CCOC(=O)c1ccc(-c2ccc(Cl)cc2)[nH]1", "TGI": "> 10 µM"}
{"COMPOUND": "COc1cc(-c2nnc3n2NC=C(C(=O)O)S3)cc(OC)c1OC", "TGI": "> 68.8 µM"}
{"COMPOUND": "Cc1[nH]n(-c2nc(O)c(-c3ccccc3)c(=O)[nH]2)c(=O)c1CCO", "TGI": "> 100 µM"}
{"COMPOUND": "Cc1n[n+](Cc2ccccc2)c2sc(N)nn12", "TGI": "> 100 µM"}
{"COMPOUND": "CC1(C)O[C@H]2OC(CO)C(N=[N+]=[N-])[C@H]2O1 (stereo not given in full)", "TGI": "> 100 µM"}
{"COMPOUND": "COC(=O)[C@@H](NC(=O)N(Cc1ccccc1)C[C@H](CC(C)C)NC(=O)[C@@H](NC(=O)OC(C)(C)C)C(C)C)C(C)C", "TGI": "> 100 µM"}
{"COMPOUND": "NC(=S)N/N=C1\\CCCC\\C1=C/c1ccccc1", "TGI": "> 100 µM"}
{"COMPOUND": "CC(=O)OC(CCC1(C)OC1COc1ccc(CCNC(=O)C=C(C)C)cc1)C(C)(C)OC(C)=O (stereo not given)", "TGI": "> 100 µM"}
{"COMPOUND": "CCOC(=O)CCC(NC(=O)c1ccc(NCc2ccc3nc(-c4ccccc4)c(Cl)nc3c2)cc1)C(=O)OCC (stereo not given)", "TGI": "> 100 µM"}
{"COMPOUND": "COc1cc(/C=C/C(=O)Oc2ccccc2)ccc1C(=O)O/C=C/c1ccccc1", "TGI": "> 100 µM"}
{"COMPOUND": "OC(C/C=N/N=C/CC(O)(C(F)(F)Cl)C(F)(F)Cl)(C(F)(F)Cl)C(F)(F)Cl", "TGI": "> 10 µM"}
{"COMPOUND": "COc1ccc(C2c3cc4c(cc3OC(N3CCOCC3)C2C)OCO4)cc1 (stereo not given)", "TGI": "> 100 µM"}
{"COMPOUND": "N#CC(C#N)=C1CCCOc2c1ccc1ccccc21", "TGI": "> 100 µM"}
{"COMPOUND": "O=C1CCSCCC(=O)Nc2ccccc2N1", "TGI": "> 100 µM"}
{"COMPOUND": "CC1(C)N=C(N)N=C(N)N1c1cccc(OCCOc2cccc([N+](=O)[O-])c2)c1", "TGI": "> 100 µM"}
{"COMPOUND": "O=C1C=CC(=CC=C2C=CN(CCCCCCCCCCC(=O)NCCCCCCCCCCCC(=O)O)C=C2)C=C1", "TGI": "> 100 µM"}
{"COMPOUND": "O=C1c2ccccc2OCC12OC21C=CC(Cl)=CC1 (stereo not given)", "TGI": "43.6 µM"}
{"COMPOUND": "CCOP(=O)(OCC)/C(C#N)=C/c1ccc(-c2cc(C(F)(F)F)cc(C(F)(F)F)c2)o1", "TGI": "26.2 µM"}
{"COMPOUND": "Cc1ccc(C)c(N2C(=O)C(=O)C(c3nc4ccccc4o3)/C(=N\\NC(=O)c3ccccc3O)C2=O)c1 (stereo not given)", "TGI": "63.6 µM"}
{"COMPOUND": "Oc1ccc(N=Nc2nccs2)c(O)c1", "TGI": "8.95 µM"}
{"COMPOUND": "NCCCNCCCCN1CCOC1=O", "TGI": "> 100 µM"}
{"COMPOUND": "O=P1(Cc2ccccc2)N(Cc2ccccc2)[C@@H]2CCCC[C@H]2N1Cc1ccccc1", "TGI": "20 µM"}
{"COMPOUND": "CCCn1cnc2c(SCc3ccc(Cl)cc3)nc(N)nc21", "TGI": "44.2 µM"}
{"COMPOUND": "CN1CC=C(c2c(N)nc(N)[nH]c2=O)CC1", "TGI": "> 100 µM"}
{"COMPOUND": "C=CCCC1(C)CCCNC1=S (stereo not given)", "TGI": "> 100 µM"}
{"COMPOUND": "Cc1ccc(N2C(=O)N(c3ccc(C)cc3)C3(SC=NN3C)C2=O)cc1 (stereo not given)", "TGI": "> 100 µM"}
{"COMPOUND": "Cc1ccc(NC(=O)C(=O)C2C(=O)NC(=O)NC2=O)cc1C", "TGI": "> 100 µM"}
{"COMPOUND": "Oc1c(Br)ccc2cccnc12", "TGI": "> 100 µM"}
{"COMPOUND": "C=C1C(O)C2C(=C(C)C13CC3)C(=O)C(C)(C)C2OC (stereo not given)", "TGI": "> 100 µM"}
{"COMPOUND": "Cc1ccc2[c](c1)[Sn]([c]1ccccc1)([c]1ccccc1)[c]1cc(C)ccc1N2C", "TGI": "> 100 µM"}
